test: protein stability index of a GFP-peptide fusion (yeast GPS) (PSI 1-4); higher = more stable; sorted into four equal gates, so the index is relative within each strain; conditions: san1∆
quantity.name: protein stability index

>>> numeric_result("ESKLIPQENDLESKMSE [SMC3]")
3.15
>>> numeric_result("HDIAYSKDGLPNKVKTE [RRP6]")
2.85
>>> numeric_result("EMVKDRGYFITQEEVEL [RPB5]")
1.74
>>> numeric_result("NNNNNNNNNNNNDDNGN [MED2]")
3.23
>>> numeric_result("LKPSMSVALHRHSNALV [RPT3]")
2.51
>>> numeric_result("DIQLKNLFPLKPKMLPI [SRP68]")
2.4
>>> numeric_result("TKRQKHFAWLPTHIWNA [POP1]")
1.55
>>> numeric_result("QPWQMDTNNEADLMALE [SNF12]")
2.86
>>> numeric_result("TLILIQNPENLLSEKIL [SIR3]")
2.87
>>> numeric_result("SYFLKLLGNCYSLRLIN [SRB8]")
2.48
>>> numeric_result("DGFKIYDNEKTAELIKE [PUP2]")
3.15
>>> numeric_result("ADEPVKASLLLHVLVAH [FAS2]")
1.3
>>> numeric_result("TNPKLKSEFDDLSLNIH [YMR129W/POM152]")
3.02
>>> numeric_result("PAFSFGISNGSESKDSD [YLR335W/NUP2]")
3.12

* * *

test: protein stability index of a GFP-peptide fusion (yeast GPS) (PSI 1-4); higher = more stable; sorted into four equal gates, so the index is relative within each strain; settings: ubr1∆
quantity.name: protein stability index

>>> numeric_result("TDKPFSSTQDVILRKIS [CSI1]")
3.05
>>> numeric_result("IKRTDEGGEAEFIFGTY [ARP7]")
3.36
>>> numeric_result("PSINLDPDNTSFSDENS [ESC2]")
3.07
>>> numeric_result("GQLEDFDSELIHLKQKL [SMC3]")
2.95
>>> numeric_result("HRLSILSHYAKIRPWRT [RPO31]")
2.84
>>> numeric_result("SIVTVVSSAKFSGKYLK [RPL22B]")
2.73
>>> numeric_result("ENVILGQMAPIGTGAFD [RPO21]")
2.54
>>> numeric_result("ASISLPNHIPSVNPSNK [SWP82]")
3.12

* * *

test: protein stability index of a GFP-peptide fusion (yeast GPS) (PSI 1-4); higher = more stable; sorted into four equal gates, so the index is relative within each strain; conditions: doa10∆
Threshold rule: protein stability index greater than or equal to 3 is y; below that, n.

>>> assigned_label("PTVKYNRKVRAGRGFTL [RPL13A]")
"n"
>>> assigned_label("QHQRIVAFVCSPISDSR [RPN10]")
"n"
>>> assigned_label("PQSAPNQMGMGTNNGMS [YOR098C/NUP1]")
"y"
>>> assigned_label("GVSRQIAASAFLSLLNL [REC8]")
"n"
>>> assigned_label("SEKLITKYFEPTSTENN [ECM29]")
"n"

* * *

assay: protein stability index of a GFP-peptide fusion (yeast GPS) (PSI 1-4); higher = more stable; sorted into four equal gates, so the index is relative within each strain; conditions: pdr5∆
quantity.name: protein stability index

>>> numeric_result("KAKVEEMNNIIAASRRH [RPL36A]")
3.25
>>> numeric_result("HQHGDKVDIFEIPETGE [FAS2]")
2.75
>>> numeric_result("LSSHSSTNSNSKPSTAS [RPN4]")
2.71
>>> numeric_result("WALKSSLNSMTNAKLPN [RGR1]")
2.77
>>> numeric_result("SVSLLNSDIANLRTQVT [SMC1]")
3.08
>>> numeric_result("MKESVVEINSSESDLDE [ESC2]")
3.06
>>> numeric_result("SFDSIDHSWFLLIGCKL [CSI1]")
1.77
>>> numeric_result("GRIRTTREDVSPHYNSQ [SSN3]")
2.02
>>> numeric_result("IIFASTKLGFTFTIKEF [SNU114]")
2.44
>>> numeric_result("ENVILGQMAPIGTGAFD [RPO21]")
2.37
>>> numeric_result("PLLARKQFVVDVLHPNR [RPS24A]")
1.83
>>> numeric_result("ADAVTKDLKLRREDEII [REC8]")
3.31
>>> numeric_result("TQKTELEIDNKDSVTEC [SIR4]")
3.15
>>> numeric_result("DEATVPNTRDAESEAIT [SWI3]")
3.15
>>> numeric_result("NKTVNEAAKPSLSFGSG [YJL041W/NSP1]")
3.01

* * *

# protein stability index per entry
assay: protein stability index of a GFP-peptide fusion (yeast GPS) (PSI 1-4); higher = more stable; sorted into four equal gates, so the index is relative within each strain; conditions: san1∆
quantity.name: protein stability index

>>> result("DVLTLENIQEGTSLTIQ [CDC53]")
3.1
>>> result("AIVVGWRAIIKAIFPNT [FAS1]")
2.41
>>> result("STMGTPTVHNSTAAAPI [PGD1]")
2.76
>>> result("TTPEINNFIVERVQSDE [SRP68]")
3.37
>>> result("TEVERAKSLLKLQLGQL [COR1]")
1.36
>>> result("MNVQDRRRLLGPAAAKP [MTR3]")
2.96
>>> result("ETYGSMEMSEKIQFILE [RPN5]")
2.53
>>> result("YGIFGEGVEYSFLHVDD [POP8]")
1.92

* * *

test: protein stability index of a GFP-peptide fusion (yeast GPS) (PSI 1-4); higher = more stable; sorted into four equal gates, so the index is relative within each strain; details: san1∆
Threshold rule: protein stability index greater than or equal to 3 is y; below that, n.

>>> assigned_label("FPSSETTSLNPIQSKVF [BRR2]")
"n"
>>> assigned_label("EDRNKIHQYLFQEGVVV [RPS10A]")
"n"
>>> assigned_label("DQEKKYGMSITETFEKP [RPB2]")
"y"
>>> assigned_label("KNSSQLLNEWSHNVDEL [RPN5]")
"n"
>>> assigned_label("EGLIIDTDKLPIKNRTS [SIN4]")
"n"
>>> assigned_label("SVDIGVETILSGKARIC [FAS2]")
"n"
>>> assigned_label("PTTMVTNQKDTNDHVDK [ISW2]")
"n"
>>> assigned_label("QTLYTGDKVVVTIWYRA [SSN3]")
"n"
>>> assigned_label("GPRAVLTRQPTEGRSRD [RET1]")
"y"
>>> assigned_label("LPNIYPSTRCKLKLLRM [RPT2]")
"n"
>>> assigned_label("GVSRQIAASAFLSLLNL [REC8]")
"n"
>>> assigned_label("ELKDICSFAVTKSSLND [YML103C/NUP188]")
"n"

* * *

experiment: protein stability index of a GFP-peptide fusion (yeast GPS) (PSI 1-4); higher = more stable; sorted into four equal gates, so the index is relative within each strain; conditions: doa10∆
Threshold rule: protein stability index greater than or equal to 3 is fulfilled; below that, not fulfilled.

>>> assigned_label("KEPVALIETVRQMKDVN [RPN2]")
"fulfilled"
>>> assigned_label("QARTATLKYICAECSSK [RPC10]")
"not fulfilled"
>>> assigned_label("HMISQEGIKETQAKRIF [SWI1]")
"fulfilled"
>>> assigned_label("KKRFDEFMAGFNIISMT [SMC4]")
"not fulfilled"
>>> assigned_label("QFTGFLLHEMTQTYMQM [GRR1]")
"not fulfilled"
>>> assigned_label("DNGLGPLKYAPHLPFSK [SWI3]")
"fulfilled"

* * *

experiment: protein stability index of a GFP-peptide fusion (yeast GPS) (PSI 1-4); higher = more stable; sorted into four equal gates, so the index is relative within each strain; conditions: pdr5∆
Threshold rule: protein stability index greater than or equal to 3 is Yes; below that, No.

>>> assigned_label("DTNVVLQAIDLLENPNC [DIS3]")
"No"
>>> assigned_label("ALGEFADWDPESMAYTA [YML031W/NDC1]")
"Yes"
>>> assigned_label("KLVLAARIIAAIPNPED [RPS0A]")
"No"
>>> assigned_label("SYFLKLLGNCYSLRLIN [SRB8]")
"No"
>>> assigned_label("KVLLPSINISCVQLIKC [SWI1]")
"No"
>>> assigned_label("DKLICSIDPPGCVDIDD [DIS3]")
"Yes"
>>> assigned_label("DKEKEENNDDALDLDLD [MED4]")
"Yes"
>>> assigned_label("LPKVRIRTRRAAELLDK [DIS3]")
"No"
>>> assigned_label("FRKKRKFELGRQPANTK [RPS8A]")
"Yes"
>>> assigned_label("EVDVCDKCGLMGYSGWC [RET1]")
"No"
>>> assigned_label("VTLASILTTAVGLVSPS [RPN1]")
"No"
>>> assigned_label("SDIISMLQISDDNEMTR [RRI2]")
"Yes"
>>> assigned_label("RAYRIIRAHQTELTHHL [QCR7]")
"Yes"
>>> assigned_label("AKLSERSNGSVASLSKR [YJL039C/NUP192]")
"No"
>>> assigned_label("HRLSILSHYAKIRPWRT [RPO31]")
"No"
>>> assigned_label("KVVNFWLLHNGFSTGIG [RPO21]")
"No"
>>> assigned_label("YDLLISTLTTISGNPPL [SRB5]")
"No"
>>> assigned_label("MVVNGPIPDARNAALRA [SCL1]")
"No"
>>> assigned_label("IKPKIALQDKEITSVLS [SNF12]")
"No"
>>> assigned_label("DDSTKFQLVNDVMDELI [SIR3]")
"Yes"
>>> assigned_label("DGIVVKNAVVRSKFGGD [ARP7]")
"No"
>>> assigned_label("DPAHSLNYTVINFKSRE [AAR2]")
"Yes"
>>> assigned_label("FRNPTPLLSNYASKINR [RGR1]")
"No"
>>> assigned_label("NKELPINHTILGKLQDV [RPN8]")
"No"
>>> assigned_label("GAAFKVISNLVPKLESS [YJL039C/NUP192]")
"No"
>>> assigned_label("TIERSLIEEEVEQDEGQ [YCS4]")
"Yes"
>>> assigned_label("VREHYLRSDIPCLSRSC [DIS3]")
"No"
>>> assigned_label("GDMTNSDAQSNLGSNVR [REC8]")
"Yes"
